Measured glycan array binding signal (z-score) values are reported for all entries that follow.
target: Neu5Gc(a2-6)GalNAc; assay: glycan array binding signal (z-score within array); higher = stronger binding; conditions: glycan notation: IUPAC condensed, linker removed
This excerpt belongs to a sample that is enriched for the strongest signals.

[
  {
    "binder": "BC2L-A (Burkholderia cenocepacia), Q1BKJ8_BURCA (protein) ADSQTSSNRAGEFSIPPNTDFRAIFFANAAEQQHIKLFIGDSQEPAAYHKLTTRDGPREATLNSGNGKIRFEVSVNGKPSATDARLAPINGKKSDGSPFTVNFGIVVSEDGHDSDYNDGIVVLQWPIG",
    "glycan array binding signal (z-score)": -0.29
  },
  {
    "binder": "Epa11 (Candida glabrata) (protein) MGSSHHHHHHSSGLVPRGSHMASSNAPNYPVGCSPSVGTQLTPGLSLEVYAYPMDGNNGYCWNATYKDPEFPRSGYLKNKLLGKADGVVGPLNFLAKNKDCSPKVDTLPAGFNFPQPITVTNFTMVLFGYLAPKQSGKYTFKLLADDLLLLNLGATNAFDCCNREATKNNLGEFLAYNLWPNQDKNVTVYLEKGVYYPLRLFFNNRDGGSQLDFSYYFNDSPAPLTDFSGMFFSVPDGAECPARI",
    "glycan array binding signal (z-score)": -0.604
  },
  {
    "binder": "RSVL (Crotalus atrox), P21963 (protein) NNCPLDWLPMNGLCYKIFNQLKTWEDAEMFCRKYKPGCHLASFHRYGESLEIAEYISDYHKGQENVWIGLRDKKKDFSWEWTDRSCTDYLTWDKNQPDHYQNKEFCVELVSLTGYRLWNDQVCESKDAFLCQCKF",
    "glycan array binding signal (z-score)": -0.366
  },
  {
    "binder": "Epa6 (Candida glabrata), Q6DTM7_CANGB (protein) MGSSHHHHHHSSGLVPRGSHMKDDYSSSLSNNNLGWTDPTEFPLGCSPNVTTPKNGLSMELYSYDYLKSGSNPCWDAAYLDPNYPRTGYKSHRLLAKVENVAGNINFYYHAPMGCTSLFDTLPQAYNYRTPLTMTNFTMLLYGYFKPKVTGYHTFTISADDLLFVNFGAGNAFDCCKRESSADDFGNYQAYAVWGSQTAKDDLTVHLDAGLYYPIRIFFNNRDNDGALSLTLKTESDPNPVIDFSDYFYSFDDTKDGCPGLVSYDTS",
    "glycan array binding signal (z-score)": -0.311
  },
  {
    "binder": "Epa3 (Candida glabrata), Q6VBI8_CANGB (protein) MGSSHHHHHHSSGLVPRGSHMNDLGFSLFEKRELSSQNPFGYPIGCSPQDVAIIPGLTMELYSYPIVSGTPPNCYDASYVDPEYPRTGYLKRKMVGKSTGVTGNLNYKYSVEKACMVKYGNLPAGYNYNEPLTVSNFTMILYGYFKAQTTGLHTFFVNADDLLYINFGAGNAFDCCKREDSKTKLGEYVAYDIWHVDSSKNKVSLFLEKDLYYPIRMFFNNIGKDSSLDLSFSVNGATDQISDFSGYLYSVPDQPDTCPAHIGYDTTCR",
    "glycan array binding signal (z-score)": -0.066
  },
  {
    "binder": "LecB PA7 (Pseudomonas aeruginosa) (protein) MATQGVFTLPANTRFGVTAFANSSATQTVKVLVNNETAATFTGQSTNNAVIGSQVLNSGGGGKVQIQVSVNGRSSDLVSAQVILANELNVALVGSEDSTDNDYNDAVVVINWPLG",
    "glycan array binding signal (z-score)": -0.508
  },
  {
    "binder": "Epa3to2 (Candida glabrata) (protein) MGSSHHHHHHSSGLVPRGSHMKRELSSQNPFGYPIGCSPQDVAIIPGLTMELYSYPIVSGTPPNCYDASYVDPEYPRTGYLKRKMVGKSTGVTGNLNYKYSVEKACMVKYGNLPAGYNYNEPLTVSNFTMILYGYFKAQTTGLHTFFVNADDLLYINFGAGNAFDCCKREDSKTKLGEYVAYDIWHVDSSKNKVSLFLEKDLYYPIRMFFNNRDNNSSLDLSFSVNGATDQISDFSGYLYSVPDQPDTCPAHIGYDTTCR",
    "glycan array binding signal (z-score)": 2.12
  }
]
